# System: Wolbachia pipientis
# test.summary: Anti-Wolbachia Cell-Based Screen
# Format: functional
# Parameters: scale not given: in the data most compounds retested in dose-response had high values
# recorded.conditions: 5 µM
The campaign covered roughly 48,000 compounds. About 13,000 (27%) showed an effect of 50% or more. The list shows a part of the results.
observable: Percent Effect (%)
Give bare numbers, in %.

> print(dat)
                                    compound      observable  reading
 1  Fc1cccc(CN2CCC3(CCCN3c3ncccn3)CC2)c1.O=C(O)C(F)(F)F  Percent Effect    103.6
 2  COc1cccc(CCNC(=O)CN2CCN(C)CC2C)c1 (stereo not drawn)  Percent Effect    5.841
 3  CCOC(=O)c1coc(N2CCN(Cc3cc(C)cc(C)c3)C(=O)C2)n1  Percent Effect   -24.84
 4  CC(C)(C)c1c[nH]c([C@@H]2COCCN2C2CCOCC2)n1  Percent Effect    1.318
 5  COCCN1CCOCC12CCN(Cc1ccn(C)n1)CC2.O=C(O)C(F)(F)F.O=C(O)C(F)(F)F  Percent Effect   -14.13
 6     CSc1nc2ncc3c(=O)n(CCN4CCCCC4)ccc3n2n1  Percent Effect    124.9
 7  Cc1ccc2[nH]c(CO[C@H]3CN(c4ccc(C#N)cn4)C[C@H]3F)nc2c1  Percent Effect   0.4241
 8  O=C1NCc2ccc(NC(=O)C3CCCN3c3nccs3)cc21 (stereo not drawn)  Percent Effect   -9.996
 9  Cc1ccc(C)c2c(=O)cc(CN3CC[C@@H](N)[C@H](O)C3)[nH]c12  Percent Effect   -6.693
10  Cc1cc2c(cc1CN1CCCCC1CCn1ccnc1C)OCO2 (stereo not drawn)  Percent Effect    17.86

Batch of 2 compounds: report Percent Effect for each.
1. COCCn1cncc1Cn1cccc(C(F)(F)F)c1=O
2. Cc1nc(C(NC(=O)c2cc(C(C)C)[nH]n2)c2ccccc2)n[nH]1 (stereo not drawn)

1. -5.803
2. -6.911

Batch of 2 compounds: report Percent Effect for each.
1. Cn1ccnc1CN(CCO)C(=O)c1nc2ccccc2s1
2. CC(NS(=O)(=O)N(C)C)c1cccc(-n2cccn2)c1 (stereo not drawn)

-11.45
-7.408
